- STUDY SYSTEM: T1, human VEGFA165 (human, UniProt P15692-4 27-191)
- T1 construct: Bought protein from two suppliers, treated as one molecule; the supplier is named under assay; also called antigen VEGFA
- T1 sequence (P15692 other isoform, or with tags, fused parts or gaps limits assumed): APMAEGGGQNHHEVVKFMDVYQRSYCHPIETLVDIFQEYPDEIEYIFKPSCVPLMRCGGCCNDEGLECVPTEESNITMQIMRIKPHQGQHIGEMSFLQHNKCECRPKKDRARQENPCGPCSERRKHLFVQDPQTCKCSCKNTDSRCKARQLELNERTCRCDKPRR
- EXPERIMENTAL DETAILS: SPR Biacore 8K, VEGFA165 on CM5, nanobody analyte, 1:1 fit
- Method: Using the Biacore 8K instrument (Cytiva), the antigen VEGFA165 (label-free, purchased from Sino Biological, Cat. No.: HPLC-10008-HNAH) as the ligand was coupled onto a CM5 chip through amino-coupling reagents (EDC and NHS), with the coupling level being about 400 RU. The mobile phase buffer was HBS-EP (0.01 M HEPES pH 7.4, 0.15 M NaCl, 3 mM EDTA, 0.005% v/v Tween 20) during the experiment. […]
Assign kon to each entry below.
Express your answer as a number followed by its unit.

BINDER	QUANTITY	READOUT VALUE
2V30-9GS (VHH, Tandem bivalent nanobody) QLQLVESGGGSVQPGGSLRLSCEVSGRTFSSYTMGWFRQAPGKGREFVVAISKGGYKYDAVSLEARFTISKDNTKNTVYLQMNSLKPEDTAVYYCAATRAYGSSRLRLAKTYEYWGQGTQVTVSSGGGGSGGGSQLQLVESGGGSVQPGGSLRLSCEVSGRTFSSYTMGWFRQAPGKGREFVVAISKGGYKYDAVSLEARFTISKDNTKNTVYLQMNSLKPEDTAVYYCAATRAYGSSRLRLAKTYEYWGQGTQVTVSS	kon	4.18e+06 M⁻¹ s⁻¹
2V1-9GS (VHH, Tandem bivalent nanobody) QLQLVESGGGSVQPGGSLRLSCEVSGRTFSSYTMGWFRQAPGKEREFVVAISKGGYKYDSVSLEARFTISKDNTKNTVYLQMNSLKPEDTAVYYCAATRAYGSSRLRLADTYEYWGQGTQVTVSSGGGGSGGGSQLQLVESGGGSVQPGGSLRLSCEVSGRTFSSYTMGWFRQAPGKEREFVVAISKGGYKYDSVSLEARFTISKDNTKNTVYLQMNSLKPEDTAVYYCAATRAYGSSRLRLADTYEYWGQGTQVTVSS	kon	2.25e+06 M⁻¹ s⁻¹
V43 (VHH, Monovalent nanobody; tag not described here, the ELISA detects a His tag) VHH: QLQLVESGGGSVQPGGSLRLSCEVSGRTFTSYTMGWFRQAPGKEREFVVAISKGGYKYDSVSLEARFTISKDNTKNTVYLQMNSLKPEDTAVYYCAGTRAYGSSRLRLANTYEYWGQGTQVTVSS	kon	743000 M⁻¹ s⁻¹

Now for the binder whose kon we want.
Identify the reported kon for the following entry. V33 (VHH, Monovalent nanobody; tag not described here) VHH: QLQLVESGGGSVQPGGSLRLSCEVSGRTFSSYTMGWFRQAPGKEREFVVAISKGGYKYDSVSLEARFTISKDNTKNTVYLQMNSLKPEDTAVYYCAATRAYGSSRLRLAKTYEYWGQGTQVTVSS
324000 M⁻¹ s⁻¹
